tested on: SNB-19; assay: NCI tumour cell line growth inhibition, 48 h
Active and inactive are the calls of the source. Cut-off read from the data, not from the text of the source: active = GI50 up to about 1.1 µM and inactive = higher.
Respond only with the outcome that fits, drawn from TRUE = active, FALSE = inactive

Please review the following examples before continuing.
{"columns": ["compound", "category.label"],
 "data": [
  ["C=C(C(=C)N1N=NC2C3CCC(C3)C21)N1N=NC2C3CCC(C3)C21 (centres undefined)", "FALSE"],
  ["CC[C@H](C)[C@H]1NC(=O)[C@@H](NC(=O)[C@@H](CC(C)C)N(C)C(=O)C2CCCN2C(=O)[C@H](C)O)[C@@H](C)OC(=O)[C@@H]2Cc3ccccc3CN2C(=O)[C@@H]2CCCN2C(=O)[C@H](CC(C)C)NC(=O)[C@@H](C)C(=O)[C@H](C(C)C)OC(=O)C[C@@H]1O (some centres undefined)", "TRUE"],
  ["CCCCNC(=O)c1cc(S(=O)(=O)n2ccnc2O)c(SC)cc1Cl", "FALSE"],
  ["N=C(N)NCCCC(NCc1c2ccccc2nc2ccccc12)C(=O)O (centres undefined)", "FALSE"],
  ["CC[C@@H]1CC[C@@H]2[C@H](CC[C@]3(C)[C@@H](O)CC[C@@H]23)[C@H]1CO", "FALSE"],
  ["C[C@@H](NC1CCCC[C@H]1O)c1ccccc1 (some centres undefined)", "FALSE"]
]}

Ask: # outcome recorded in this test, key = `O=C1c2ccccc2C(=O)c2sc(Nc3ccccc3C(F)(F)F)nc21`
Result: FALSE

Ask: // param item: CS(=O)(=O)CCC1CCC(=O)O1 (centres undefined) ; yields the recorded call
Result: FALSE

Ask: Outcome? CC(C)(C)OCC1NC(=O)[C@@H]2Cc3c([nH]c4ccccc34)C(C3CCCCC3)N2C1=O (some centres undefined)
Result: FALSE

Ask: Just curious, what result did CN1c2ccc(O)c(O)c2-c2cc(O)cc3c2C1CCC3 (centres undefined) get here?
Result: FALSE

Ask: Call for entry O=CC(NC(=O)N(CCCl)N=O)C(O)C(O)C(O)CO (centres undefined) :
Result: FALSE

Ask: Please indicate how the test categorized `O=C(O)/C=C/c1ccc(O)c(O)c1` .
Result: FALSE

Ask: Given `O=C(CSSCC(=O)OCCS(=O)(=O)Nc1ccc(Br)cc1)OCCS(=O)(=O)Nc1ccc(Br)cc1` , state the outcome it received in this test.
Result: FALSE

Ask: What classification did CCCCN(CCCC)CC(C(=O)Nc1ccc([N+](=O)[O-])cc1[N+](=O)[O-])/C(C)=N\NC(=O)C[N+](C)(C)C (centres undefined) end up with in this test?
Result: FALSE

// data source = ChEMBL document CHEMBL1201862
